Source: paper doi:10.1101/2025.03.12.642038

# Subject Of Test: T1, IRF4 DBD T95K (Homo sapiens, UniProt Q15306 20-132, T95K)
# T1 sequence: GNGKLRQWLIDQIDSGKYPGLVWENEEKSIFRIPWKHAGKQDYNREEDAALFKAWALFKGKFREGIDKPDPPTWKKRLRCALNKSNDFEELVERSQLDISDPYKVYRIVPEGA
# Assay Method Text: SPR two-state kinetic; FP: PBS + 0.05% Tween20, 5 nM DNA, 1 h, room temperature; SPR: Biacore S200, SA chip, protein 0.1-4500 nM, running buffer not given in material; errors are SD
# Condition Label: protein: recombinant; tags: N-terminal His8-linker-His8-TEV, cleaved; label: 3' biotin; hairpin, TTTT loop
Quantity: Kd

Quick one: Kd for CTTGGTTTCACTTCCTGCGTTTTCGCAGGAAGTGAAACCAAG (structured_DNA) [IRE hairpin (biotin)] ?
913 nM
